For each record, write down the corresponding selective drug sensitivity score.
- Tested on: MN-60
- protocol.notes: selective drug sensitivity score (sDSS, relative to normal bone marrow) (sDSS (score)); higher = more potent and effective on the cell line relative to normal bone marrow cells;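 note: ALL cell lines in 384-well plates, five doses spanning 10,000-fold, each plate scaled between vehicle and 100 µmol/L benzalkonium chloride controls, sDSS an adapted area-under-curve metric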
- measurement.context: 72 h
Keep it simple and answer with nothing but the number.

Recorded selective drug sensitivity score (compound CC(C)(C)c1cc(NC(=O)Nc2ccc(Oc3ccnc4[nH]c(=O)cnc34)cc2F)n(-c2ccccc2)n1 (top concentration 25000 nM) ): 0.42

Recorded selective drug sensitivity score (compound CCN1CCN(c2ccc(Nc3cc(N(C)C(=O)Nc4c(Cl)c(OC)cc(OC)c4Cl)ncn3)cc2)CC1 [Infigratinib] (top concentration 1000 nM) ): 0

Recorded selective drug sensitivity score (compound CC[C@@H]1CN(C(=O)NCC(F)(F)F)C[C@@H]1c1cnc2cnc3[nH]ccc3n12 [Upadacitinib] (top concentration 10000 nM) ): -7.16

---

- Tested on: CCRF-HSB2
- protocol.notes: selective drug sensitivity score (sDSS, relative to normal bone marrow) (sDSS (score)); higher = more potent and effective on the cell line relative to normal bone marrow cells
- measurement.context: 72 h
Please use Criterion met whenever selective drug sensitivity score is not below -0.04, and Criterion not met whenever it is.

Ask: Determine whether measured selective drug sensitivity score meets or exceeds -0.04 for NC1(c2ccc(-c3nc4ccn5c(=O)[nH]nc5c4cc3-c3ccccc3)cc2)CCC1 [MK-2206] (top concentration 1000 nM)
Reply: Criterion met

Ask: Determine whether measured selective drug sensitivity score meets or exceeds -0.04 for CCNc1nc(Nc2cc(F)c(C(=O)N3CCOCC3)cc2OC)ncc1C(F)(F)F [GNE-7915] (top concentration 1000 nM)
Reply: Criterion not met

Ask: Determine whether measured selective drug sensitivity score meets or exceeds -0.04 for CC(=O)c1c(C)c2cnc(Nc3ccc(N4CCNCC4)cn3)nc2n(C2CCCC2)c1=O [Palbociclib] (top concentration 10000 nM)
Reply: Criterion met

Ask: Determine whether measured selective drug sensitivity score meets or exceeds -0.04 for CC(C)N(CCCNC(=O)Nc1ccc(C(C)(C)C)cc1)C[C@H]1O[C@@H](n2cc(Br)c3c(N)ncnc32)[C@H](O)[C@@H]1O [SGC0946] (top concentration 10000 nM)
Reply: Criterion met

Ask: Determine whether measured selective drug sensitivity score meets or exceeds -0.04 for Clc1ccc(C(c2ccccc2Cl)C(Cl)Cl)cc1 (stereo unspecified) [Mitotane] (top concentration 10000 nM)
Reply: Criterion not met

---

- Tested on: MOLT-4
- protocol.notes: selective drug sensitivity score (sDSS, relative to normal bone marrow) (sDSS (score)); higher = more potent and effective on the cell line relative to normal bone marrow cells
- measurement.context: 72 h
Please use y whenever selective drug sensitivity score is not below -0.06, and n whenever it is.

Ask: Determine whether measured selective drug sensitivity score meets or exceeds -0.06 for CN1CCC(CNc2ccc3ncc(-c4cccc(OC(F)(F)F)c4)n3n2)CC1 [SGI-1776] (top concentration 10000 nM)
Reply: n

Ask: Determine whether measured selective drug sensitivity score meets or exceeds -0.06 for CC(=O)O[C@]1(C(C)=O)CC[C@H]2[C@@H]3C=C(C)C4=CC(=O)CC[C@]4(C)[C@H]3CC[C@@]21C [Megestrol_acetate] (top concentration 10000 nM)
Reply: y

Ask: Determine whether measured selective drug sensitivity score meets or exceeds -0.06 for CC(O)(CS(=O)(=O)c1ccc(F)cc1)C(=O)Nc1ccc(C#N)c(C(F)(F)F)c1 (stereo not drawn) [Bicalutamide] (top concentration 10000 nM)
Reply: y

Ask: Determine whether measured selective drug sensitivity score meets or exceeds -0.06 for O=C(O)CC1CC(c2ccccc2)=NO1 (stereo not drawn) [VGX-1027] (top concentration 10000 nM)
Reply: y

Ask: Determine whether measured selective drug sensitivity score meets or exceeds -0.06 for Cn1cc(CNCC2CCN(c3ncc(C(=O)NO)cn3)CC2)c2ccccc21 [Quisinostat] (top concentration 1000 nM)
Reply: y

Ask: Determine whether measured selective drug sensitivity score meets or exceeds -0.06 for Nc1ccccc1NC(=O)c1ccc(CNC(=O)OCc2cccnc2)cc1 [Entinostat] (top concentration 10000 nM)
Reply: y

Ask: Determine whether measured selective drug sensitivity score meets or exceeds -0.06 for Cc1[nH]nc(C(F)(F)F)c1Cc1sc2c(c1C(=O)N1C[C@](C)(O)CO1)c(=O)n(C)c(=O)n2C(C)C [AZD3965] (top concentration 1000 nM)
Reply: y

Ask: Determine whether measured selective drug sensitivity score meets or exceeds -0.06 for O=C(Nc1nc2cccc(-c3ccc(CN4CCS(=O)(=O)CC4)cc3)n2n1)C1CC1 [Filgotinib] (top concentration 10000 nM)
Reply: n

Ask: Determine whether measured selective drug sensitivity score meets or exceeds -0.06 for Cc1c(-c2c(-c3ccc(F)o3)sc3ncnc(O[C@H](Cc4ccccc4OCc4ccnn4CC(F)(F)F)C(=O)O)c23)ccc(OCCN2CCN(C)CC2)c1Cl (top concentration 1000 nM)
Reply: n

Ask: Determine whether measured selective drug sensitivity score meets or exceeds -0.06 for CC[C@@H]1CN(C(=O)NCC(F)(F)F)C[C@@H]1c1cnc2cnc3[nH]ccc3n12 [Upadacitinib] (top concentration 10000 nM)
Reply: n

Ask: Determine whether measured selective drug sensitivity score meets or exceeds -0.06 for CC[C@@H]1[C@H](F)C(=O)N[C@@H]1COc1nccc2cc(C(N)=O)c(OC)cc12 (top concentration 10000 nM)
Reply: y

Ask: Determine whether measured selective drug sensitivity score meets or exceeds -0.06 for O=C(Nc1cnn2ccc(N3CCC[C@@H]3c3cc(F)ccc3F)nc12)N1CC[C@H](O)C1 [Larotrectinib] (top concentration 1000 nM)
Reply: n

---

For each record, write down the corresponding selective drug sensitivity score.
- System: MOLT-16
- protocol.notes: selective drug sensitivity score (sDSS, relative to normal bone marrow) (sDSS (score)); higher = more potent and effective on the cell line relative to normal bone marrow cells
- measurement.context: 72 h
Keep it simple and answer with nothing but the number.

Query CC(C)(C)c1nc(-c2cccc(NS(=O)(=O)c3c(F)cccc3F)c2F)c(-c2ccnc(N)n2)s1 [Dabrafenib] (top concentration 2500 nM) on MOLT-16; selective drug sensitivity score returned: 4.68

Query O=C1NC(=O)[C@@H](c2cn3c4c(cccc24)CCC3)[C@@H]1c1c[nH]c2ccccc12 [Tivantinib] (top concentration 1000 nM) on MOLT-16; selective drug sensitivity score returned: 3.48

Query CO[C@@H]1[C@H](N(C)C(=O)c2ccccc2)C[C@H]2O[C@]1(C)n1c3ccccc3c3c4c(c5c6ccccc6n2c5c31)C(=O)NC4 [Midostaurin] (top concentration 10000 nM) on MOLT-16; selective drug sensitivity score returned: 12.5

Query Cc1nc2cccc(N)c2c(=O)n1C1CCC(=O)NC1=O (stereo not drawn) [Avadomide (CC122)] (top concentration 10000 nM) on MOLT-16; selective drug sensitivity score returned: 0

Query N.N.[Cl][Pt][Cl] [Cisplatin] (top concentration 100000 nM) on MOLT-16; selective drug sensitivity score returned: 17.7

Query CN(C)C(=O)c1ccc(S(=O)(=O)c2ccc(NC(=O)[C@@](C)(O)C(F)(F)F)c(Cl)c2)cc1 [AZD7545] (top concentration 10000 nM) on MOLT-16; selective drug sensitivity score returned: 5.3

Query C=CC(=O)Nc1cccc(Oc2nc(Nc3ccc(N4CCN(C)CC4)cc3)nc3ccsc23)c1 [Olmutinib] (top concentration 1000 nM) on MOLT-16; selective drug sensitivity score returned: -0.02

Query Cc1nc(Nc2n[nH]c3c2CN(C(=O)N[C@H](CN(C)C)c2ccccc2)C3(C)C)c2sccc2n1 (top concentration 10000 nM) on MOLT-16; selective drug sensitivity score returned: 22.7

Query O=C(O)CC[C@H]1CC[C@@](c2cc(F)ccc2F)(S(=O)(=O)c2ccc(Cl)cc2)CC1 [MK-0752] (top concentration 1000 nM) on MOLT-16; selective drug sensitivity score returned: 0

Query CCCCCCCCCCCCCCCCCCOP(=O)([O-])OC1CC[N+](C)(C)CC1 [Perifosine] (top concentration 2500 nM) on MOLT-16; selective drug sensitivity score returned: -0.36

Query O=c1[nH]c(=O)n([C@H]2C[C@H](O)[C@@H](CO)O2)cc1C(F)(F)F [Trifluridine] (top concentration 10000 nM) on MOLT-16; selective drug sensitivity score returned: 15.1

Query COc1cc2c(Nc3ccc(Cl)c(Cl)c3F)ncnc2cc1OC[C@@H]1C[C@@H]2CN(C)C[C@@H]2C1 [Tesevatinib] (top concentration 1000 nM) on MOLT-16; selective drug sensitivity score returned: 1.74

Query COc1cc2ncnc(Nc3ccc(F)c(Cl)c3)c2cc1OCCCN1CCOCC1 [Gefitinib] (top concentration 10000 nM) on MOLT-16; selective drug sensitivity score returned: 3.36

---

For each record, write down the corresponding selective drug sensitivity score.
- Test system: COG-LL-319h
- protocol.notes: selective drug sensitivity score (sDSS, relative to normal bone marrow) (sDSS (score)); higher = more potent and effective on the cell line relative to normal bone marrow cells
- measurement.context: 72 h
Keep it simple and answer with nothing but the number.

Recorded selective drug sensitivity score (compound C=CC(=O)N1CC/C(=C\c2ccc(F)c([N+](=O)[O-])c2)C(=O)/C(=C/c2ccc(F)c([N+](=O)[O-])c2)C1 [VLX1570] (top concentration 10000 nM) ): 2.08

Recorded selective drug sensitivity score (compound CC(C)Nc1cc(-c2c[nH]c(C(=O)N[C@H](CO)c3cccc(Cl)c3)c2)c(Cl)cn1 [Ulixertinib] (top concentration 10000 nM) ): -0.78

Recorded selective drug sensitivity score (compound CC1(C)CCC(c2ccc(Cl)cc2)=C(CN2CCN(c3ccc(C(=O)NS(=O)(=O)c4ccc(N[C@H](CCN5CCOCC5)CSc5ccccc5)c(S(=O)(=O)C(F)(F)F)c4)cc3)CC2)C1 [Navitoclax] (top concentration 10000 nM) ): 22.1

Recorded selective drug sensitivity score (compound COc1cccc2c1C(=O)c1c(O)c3c(c(O)c1C2=O)C[C@@](O)(C(=O)CO)C[C@@H]3O[C@H]1C[C@H](N)[C@@H](O)[C@H](C)O1 [Epirubicin] (top concentration 1000 nM) ): 16.3

Recorded selective drug sensitivity score (compound Cc1c(-c2c(-c3ccc(F)o3)sc3ncnc(O[C@H](Cc4ccccc4OCc4ccnn4CC(F)(F)F)C(=O)O)c23)ccc(OCCN2CCN(C)CC2)c1Cl (top concentration 1000 nM) ): 15.8

Recorded selective drug sensitivity score (compound Cc1ccc(NS(=O)(=O)c2cccc(C#N)c2)c2[nH]cc(C#N)c12 [E7820] (top concentration 50000 nM) ): 18

Recorded selective drug sensitivity score (compound CNC(=O)c1ccc(N2C(=S)N(c3cnc(C#N)c(C(F)(F)F)c3)C(=O)C23CCC3)cc1F [Apalutamide] (top concentration 10000 nM) ): 0

Recorded selective drug sensitivity score (compound Nc1ccccc1NC(=O)c1ccc(CNC(=O)OCc2cccnc2)cc1 [Entinostat] (top concentration 10000 nM) ): 12.7

Recorded selective drug sensitivity score (compound O=S(=O)(c1cccc2c(O)nccc12)N1CCCNCC1 [Hydroxyfasudil] (top concentration 19000 nM) ): -0.72

Recorded selective drug sensitivity score (compound CC[C@H](CO)Nc1nc(NCc2ccccc2)c2ncn(C(C)C)c2n1 [Seliciclib] (top concentration 10000 nM) ): 1.66

Recorded selective drug sensitivity score (compound O=C(Nc1cc(Cl)cc2c1[nH]c1cnccc12)c1cccnc1 [PS-1145] (top concentration 25000 nM) ): -0.46

Recorded selective drug sensitivity score (compound C[C@@H]1COCCN1c1cc(C2([S@](C)(=N)=O)CC2)nc(-c2cc[nH]c3nccc2-3)n1 [AZD6738] (top concentration 25000 nM) ): 15.6
